Target: KRAS (G12D)::SOS1 (Homo sapiens (Human), UniProt P01116, G12D)
Sequence (P01116 other isoform, or with tags, fused parts or gaps G12D): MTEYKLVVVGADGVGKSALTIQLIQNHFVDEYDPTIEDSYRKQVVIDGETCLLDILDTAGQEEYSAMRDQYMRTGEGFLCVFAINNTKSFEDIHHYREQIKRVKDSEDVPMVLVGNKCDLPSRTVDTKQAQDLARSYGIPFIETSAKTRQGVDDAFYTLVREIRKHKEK
Assay: KRAS::SOS1 AlphaScreen binding assay, KRAS G12D
measurement_kind: IC50 (nM)

# molecule, IC50, nM
data = [
    ("C[C@H](Oc1cc(N2CCC[C@H](O)C2)nc(-c2noc3c2CCC[C@@]32CCCc3sc(N)c(C#N)c32)n1)[C@@H]1CCCN1C", 2),
    ("CO[C@@H]1C[C@@H]([C@H](C)Oc2cc(-c3ccn(C4COC4)n3)nc(-c3noc4c3CCC[C@@]43CCCc4sc(N)c(C#N)c43)n2)N(C)C1", 4),
    ("C[C@H](Oc1cc(-n2ccc(-c3ccccn3)n2)nc(-c2noc3c2CCC[C@@]32CCCc3sc(N)c(C#N)c32)n1)[C@@H]1CCCN1C", 2),
]

A = CC(C)[C@@H]1CN(c2cc(O[C@@H](C)[C@@H]3CCCN3C)nc(-c3noc4c3CCC[C@@]43CCCc4sc(N)c(C#N)c43)n2)CCN1
B = CC(=O)N1CC=C(c2cc(O[C@@H](C)[C@@H]3CCCN3C)nc(-c3noc4c3CCC[C@@]43CCCc4sc(N)c(C#N)c43)n2)CC1
Which has the smaller recorded IC50, A or B ? // respond with label for picked entry
A

a = C[C@H](Oc1cc(N2CCNC3(CCC3)C2)nc(-c2noc3c2CCC[C@@]32CCCc3sc(N)c(C#N)c32)n1)[C@@H]1CCCN1C
b = C[C@H](Oc1cc(-c2cnn(C)n2)nc(-c2noc3c2CCC[C@@]32CCCc3sc(N)c(C#N)c32)n1)[C@@H]1CCCN1C
c = C[C@H](Oc1cc(-c2ccn(C[C@@H](C)O)n2)nc(-c2onc3c2CCC[C@@]32CCCc3sc(N)c(C#N)c32)n1)[C@@H]1CCCN1C
Order the entries by their reported IC50, beginning at the minimum. Record the ranking as a list of labels in the requested order.
a, c, b
(a: 1 nM, c: 2 nM, b: 5 nM)

A = C[C@H](Oc1nc(-c2noc3c2CCC[C@@]32CCCc3sc(N)c(C#N)c32)nc(N2CCNC3(CC3)C2)c1Cl)[C@@H]1C[C@@H](F)CN1C
B = C[C@H](Oc1cc(C2CCCO2)nc(-c2noc3c2CCC[C@@]32CCCc3sc(N)c(C#N)c32)n1)[C@@H]1CCCN1C (stereo partly shown)
C = C[C@H](Oc1cc(-c2ccn3ncnc3c2)nc(-c2onc3c2CCC[C@@]32CCCc3sc(N)c(C#N)c32)n1)[C@@H]1CCCN1C
D = C[C@H](Oc1cc(N2CCc3cccnc32)nc(-c2noc3c2CCC[C@@]32CCCc3sc(N)c(C#N)c32)n1)[C@@H]1CCCN1C
Rank items: key IC50, increasing. List each label, following the requested order.
A, B, C, D
(A: 1 nM, B: 2 nM, C: 6 nM, D: 21 nM)

Entry source: patent US20240174690A1
